system: Staphylococcus sp.; assay: In vitro antibacterial evaluation: minimum inhibitory concentration (MIC), broth dilution method; format: cell-based; conditions: strain GC 3051; broth dilution, 18 hours at 35° C.
# MIC Staphylococcus aureus (GC 3051) per record follows
Measure Name: MIC Staphylococcus aureus (GC 3051) (µg/mL)

- Molecule: "CCOc1cc(C2OCC3OC(OC4C(CO)OC(Oc5ccc(CC6NC(=O)C(C(C)c7ccccc7)NC(=O)CNC(=O)C(CO)NC(=O)C(C(O)C7CNC(=N)N7C7OC(CO)C(O)C(O)C7O)NC(=O)C(C(O)C7CNC(=N)N7)NC6=O)cc5)C(O)C4O)C(O)C(O)C3O2)ccc1[N+](=O)[O-] (centres unmarked)"
  Target Desc: "Staphylococcus sp."
  Numeric Result: 16
- Molecule: "COC1CCC2(C)C(CCC3C2CCC2(C)C(C(C)CCC4OCC5OC(OC6C(CO)OC(Oc7ccc(CC8NC(=O)C(C(C)c9ccccc9)NC(=O)CNC(=O)C(CO)NC(=O)C(C(O)C9CNC(=N)N9C9OC(CO)C(O)C(O)C9O)NC(=O)C(C(O)C9CNC(=N)N9)NC8=O)cc7)C(O)C6O)C(O)C(O)C5O4)CCC32)C1 (centres unmarked)"
  Target Desc: "Staphylococcus sp."
  Numeric Result: 32
- Molecule: "COc1cccc(C2OC3C(OC4C(CO)OC(Oc5ccc(CC6NC(=O)C(C(C)c7ccccc7)NC(=O)CNC(=O)C(CO)NC(=O)C(C(O)C7CNC(=N)N7C7OC(CO)C(O)C(O)C7O)NC(=O)C(C(O)C7CNC(=N)N7)NC6=O)cc5)C(O)C4O)OC(CO)C(O)C3O2)c1 (single isomer, unassigned) [Example 137b]"
  Target Desc: "Staphylococcus sp."
  Numeric Result: 16
- Molecule: "CC(c1ccccc1)C1NC(=O)CNC(=O)C(CO)NC(=O)C(C(O)C2CNC(=N)N2C2OC(CO)C(O)C(O)C2O)NC(=O)C(C(O)C2CNC(=N)N2)NC(=O)C(Cc2ccc(OC3OC(CO)C(OC4OC5COC(C67CC8CC(CC(C8)C6)C7)OC5C(O)C4O)C(O)C3O)cc2)NC1=O (centres unmarked)"
  Target Desc: "Staphylococcus sp."
  Numeric Result: 2
- Molecule: "CC(c1ccccc1)C1NC(=O)CNC(=O)C(CO)NC(=O)C(C(O)C2CNC(=N)N2C2OC(CO)C(O)C(O)C2O)NC(=O)C(C(O)C2CNC(=N)N2)NC(=O)C(Cc2ccc(OC3OC(CO)C(OC4OC5COC(c6cccc(Cl)c6)OC5C(O)C4O)C(O)C3O)cc2)NC1=O (centres unmarked)"
  Target Desc: "Staphylococcus sp."
  Numeric Result: 2
- Molecule: "CC(c1ccccc1)C1NC(=O)CNC(=O)C(CO)NC(=O)C(C(O)C2CNC(=N)N2C2OC(CO)C(O)C(O)C2O)NC(=O)C(C(O)C2CNC(=N)N2)NC(=O)C(Cc2ccc(OC3OC(CO)C(OC4OC5COC(c6cccc(Oc7ccccc7)c6)OC5C(O)C4O)C(O)C3O)cc2)NC1=O (centres unmarked)"
  Target Desc: "Staphylococcus sp."
  Numeric Result: 4
- Molecule: "CC(c1ccccc1)C1NC(=O)CNC(=O)C(CO)NC(=O)C(C(O)C2CNC(=N)N2C2OC(CO)C(O)C(O)C2O)NC(=O)C(C(O)C2CNC(=N)N2)NC(=O)C(Cc2ccc(OC3OC(CO)C(OC4OC5COC(C6CCCC6)OC5C(O)C4O)C(O)C3O)cc2)NC1=O (centres unmarked)"
  Target Desc: "Staphylococcus sp."
  Numeric Result: 1
- Molecule: "CC(c1ccccc1)C1NC(=O)CNC(=O)C(CO)NC(=O)C(C(O)C2CNC(=N)N2C2OC(CO)C(O)C(O)C2O)NC(=O)C(C(O)C2CNC(=N)N2)NC(=O)C(Cc2ccc(OC3OC(CO)C(OC4OC5COC(CC67CC8CC(CC(C8)C6)C7)OC5C(O)C4O)C(O)C3O)cc2)NC1=O (centres unmarked)"
  Target Desc: "Staphylococcus sp."
  Numeric Result: 2
- Molecule: "CC(c1ccccc1)C1NC(=O)CNC(=O)C(CO)NC(=O)C(C(O)C2CNC(=N)N2C2OC(CO)C(O)C(O)C2O)NC(=O)C(C(O)C2CNC(=N)N2)NC(=O)C(Cc2ccc(OC3OC(CO)C(OC4OC5COC(C6CC=CCC6)OC5C(O)C4O)C(O)C3O)cc2)NC1=O (centres unmarked)"
  Target Desc: "Staphylococcus sp."
  Numeric Result: 1
- Molecule: "CC(c1ccccc1)C1NC(=O)CNC(=O)C(CO)NC(=O)C(C(O)C2CNC(=N)N2C2OC(CO)C(O)C(O)C2O)NC(=O)C(C(O)C2CNC(=N)N2)NC(=O)C(Cc2ccc(OC3OC(CO)C(OC4OC5COC(c6ccc(-c7cccs7)cc6)OC5C(O)C4O)C(O)C3O)cc2)NC1=O (centres unmarked)"
  Target Desc: "Staphylococcus sp."
  Numeric Result: 8
- Molecule: "CC(C)=CCCC(C)=CCOc1ccc(C2OCC3OC(OC4C(CO)OC(Oc5ccc(CC6NC(=O)C(C(C)c7ccccc7)NC(=O)CNC(=O)C(CO)NC(=O)C(C(O)C7CNC(=N)N7C7OC(CO)C(O)C(O)C7O)NC(=O)C(C(O)C7CNC(=N)N7)NC6=O)cc5)C(O)C4O)C(O)C(O)C3O2)cc1 (centres unmarked)"
  Target Desc: "Staphylococcus sp."
  Numeric Result: 2
- Molecule: "CC(c1ccccc1)C1NC(=O)CNC(=O)C(CO)NC(=O)C(C(O)C2CNC(=N)N2C2OC(CO)C(O)C(O)C2O)NC(=O)C(C(O)C2CNC(=N)N2)NC(=O)C(Cc2ccc(OC3OC(CO)C(OC4OC5COC(CCc6ccccc6)OC5C(O)C4O)C(O)C3O)cc2)NC1=O (centres unmarked)"
  Target Desc: "Staphylococcus sp."
  Numeric Result: 2
- Molecule: "COc1cc(OC)cc(C2OCC3OC(OC4C(CO)OC(Oc5ccc(CC6NC(=O)C(C(C)c7ccccc7)NC(=O)CNC(=O)C(CO)NC(=O)C(C(O)C7CNC(=N)N7C7OC(CO)C(O)C(O)C7O)NC(=O)C(C(O)C7CNC(=N)N7)NC6=O)cc5)C(O)C4O)C(O)C(O)C3O2)c1 (centres unmarked)"
  Target Desc: "Staphylococcus sp."
  Numeric Result: 2
